System: Lung
Assay: Drug level in rat lung at 2.3 mg/kg dosed via inhalation measured post cell suspension
Format: ADME, organism-based
Set-up: dose 2.3 mg/kg
Conditions: in vivo, inhaled_or_intranasal, read-out: Drug uptake
assay-metric: concentration (nM)
# number only, unit nM dropped from output

Asked: Give the measured concentration for C=CC(=O)N1CC[C@H](Nc2cc(CN[C@@H](C)C(C)(C)C)cc(Nc3nc4cccnc4s3)n2)C1
Given back: 8

----------
Biological target: cAMP and cAMP-inhibited cGMP 3',5'-cyclic phosphodiesterase 10A (Homo sapiens)
Sequence (Q9Y233 whole entry): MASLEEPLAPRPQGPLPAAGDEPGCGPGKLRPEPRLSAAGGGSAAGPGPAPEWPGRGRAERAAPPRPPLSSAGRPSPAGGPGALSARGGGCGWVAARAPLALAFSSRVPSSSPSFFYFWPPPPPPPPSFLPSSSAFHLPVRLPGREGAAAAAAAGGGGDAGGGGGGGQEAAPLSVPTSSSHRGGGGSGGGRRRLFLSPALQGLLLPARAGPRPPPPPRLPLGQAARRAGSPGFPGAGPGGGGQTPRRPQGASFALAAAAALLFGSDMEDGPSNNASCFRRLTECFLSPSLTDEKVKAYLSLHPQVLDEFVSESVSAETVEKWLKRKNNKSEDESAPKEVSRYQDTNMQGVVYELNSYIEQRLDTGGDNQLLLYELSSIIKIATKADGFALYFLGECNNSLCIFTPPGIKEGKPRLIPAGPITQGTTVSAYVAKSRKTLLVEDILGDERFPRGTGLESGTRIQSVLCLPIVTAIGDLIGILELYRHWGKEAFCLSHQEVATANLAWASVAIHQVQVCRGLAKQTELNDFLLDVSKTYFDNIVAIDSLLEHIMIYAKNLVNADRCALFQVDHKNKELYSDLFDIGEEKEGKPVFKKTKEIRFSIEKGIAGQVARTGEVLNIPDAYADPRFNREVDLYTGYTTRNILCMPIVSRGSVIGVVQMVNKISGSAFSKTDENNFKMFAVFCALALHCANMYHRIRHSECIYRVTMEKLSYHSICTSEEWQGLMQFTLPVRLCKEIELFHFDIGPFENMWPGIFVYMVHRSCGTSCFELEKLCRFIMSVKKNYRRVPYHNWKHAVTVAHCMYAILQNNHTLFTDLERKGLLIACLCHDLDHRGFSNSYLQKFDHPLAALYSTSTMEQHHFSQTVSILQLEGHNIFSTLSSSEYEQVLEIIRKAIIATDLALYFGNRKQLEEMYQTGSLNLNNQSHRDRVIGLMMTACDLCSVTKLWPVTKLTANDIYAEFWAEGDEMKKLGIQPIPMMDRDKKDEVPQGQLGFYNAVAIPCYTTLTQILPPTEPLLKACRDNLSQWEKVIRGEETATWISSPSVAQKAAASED
assay-metric: pIC50
Friendly reminder that pIC50 comes from taking -log10 of the concentration in mol/L.

Asked: Give the measured pIC50 for Cc1nc2ccccc2nc1-c1cc2nc(N3CC[C@@H](F)C3)cc(N([11CH3])C3CCOCC3)n2n1
Given back: 10.22

----------
assay-metric: IC50 (nM)
# number only, unit nM dropped from output

Asked: Tell me its IC50 on Tyrosine-protein kinase BTK (Homo sapiens, UniProt Q06187): C=CC(=O)Nc1cccc(N(C)c2nc(Nc3cccc(OCCCN(C)C(=O)CCCC(=O)NCCCOCCOCCOCCCNC(=O)CCCC[C@H]4SC[C@H]5NC(=O)N[C@H]54)c3)ncc2C)c1
Sequence (Q06187 whole entry): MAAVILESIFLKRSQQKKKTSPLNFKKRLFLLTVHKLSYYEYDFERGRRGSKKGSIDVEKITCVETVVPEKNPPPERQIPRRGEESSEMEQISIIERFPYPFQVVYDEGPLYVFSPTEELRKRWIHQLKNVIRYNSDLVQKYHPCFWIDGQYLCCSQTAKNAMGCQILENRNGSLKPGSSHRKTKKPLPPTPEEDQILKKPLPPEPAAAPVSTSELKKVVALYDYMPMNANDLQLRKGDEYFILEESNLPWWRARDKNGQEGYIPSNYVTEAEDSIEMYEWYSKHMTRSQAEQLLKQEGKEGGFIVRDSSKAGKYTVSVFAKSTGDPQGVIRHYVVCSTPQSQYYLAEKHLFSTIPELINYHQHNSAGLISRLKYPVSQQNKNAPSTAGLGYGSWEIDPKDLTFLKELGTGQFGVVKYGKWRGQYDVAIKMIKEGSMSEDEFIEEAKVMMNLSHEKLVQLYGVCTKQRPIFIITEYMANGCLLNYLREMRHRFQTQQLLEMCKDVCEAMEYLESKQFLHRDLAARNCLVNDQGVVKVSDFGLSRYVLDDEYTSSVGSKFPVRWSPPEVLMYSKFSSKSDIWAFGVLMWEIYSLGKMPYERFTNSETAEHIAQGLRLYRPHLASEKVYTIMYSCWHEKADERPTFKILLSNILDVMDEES
Given back: 0.5
